- System: MS2 coat protein
- ASSAY_NAME: apparent KD of MS2 coat protein; designed switch direction (-1 OFF switch, 1 ON switch): -1; higher = weaker reporter binding
- MEASUREMENT_SETUP: input ligand: FMN 200 uM
TEST_READOUT: apparent KD of MS2 coat protein (nM)
Give bare numbers, in nM.

For the 6 sequences below, give their apparent KD of MS2 coat protein values.
1. GCCUUGGGAGUCAGGAUAUACAAUAAAAUAAUUAAGUAGAAGGGACAUGAGGAUCACCCAUGUACAUUACAUUG [alecazam30] (Eterna round: R97, puzzle: Brourd's mod of Exclusion 4)
2. CCCUGACAUGAGGAUCACCCAUGUUAGGAUAUAACAUUUGACACGACAGUGUGAAGUGUUAGAAGGGAUAUGGG [-28.4, -26.7 kcal, A 31%] (Eterna round: R97, puzzle: Exclusion 1)
3. UAUUAGCAAGCAACUGGGUACAUGAGGAUCACCCAUGUGCUCGUCUUAUAAGGUACUGUGACGAAAGUUACGGUACC [mod--Eli115] (Eterna round: R97, puzzle: Sensor, turn-off variant 1)
4. CCGGUGUGAGGAUAUCGUGGCUUGCAGGAAACGCUAAGUCGCGAGAAGGCACAUGAGGAUCACCCAUGUGUAUC [Eternabot (L2) Solution 54] (Eterna round: R97, puzzle: Exclusion 4)
5. CACGAAGAGUGAGGAUAUGUGCGACAAAGUUGCACAGAAGGCACAUGAGGAUCACCCAUGUAAGCUAGGUCGAAAGACCUAGCG [Omei Exc(NG)1 Av3] (Eterna round: R96, puzzle: Exclusion NG 1)
6. GAACCAAAAGGAUAUGGCGUAACAAACAUGAGGAUCACCCAUGUCCUCGAUGAAUAUCCGCCAGAAGGUUUGUCUC [Eternabot (L2) Solution 10] (Eterna round: R97, puzzle: Exclusion 5)

Result:
[48, 36.2, 17.9, 62.8, 47.5, 1000]

For the 5 sequences below, give their apparent KD of MS2 coat protein values.
1. CAGUACUGAGGAUAUACAUGAGGAUCACCCAUGUGUUCCAGCUAGGAAACUAGCACUUGUAGAAGGCAGUACUG [Ex3: 830] (Eterna round: R96, puzzle: Exclusion 3)
2. GUCCGGCAUGUAGGAUAUGGAUCCGAUUAGGAUUUAGAAGGACAUGAGGAUCACCCAUGUGCAUUUAAUUAGUCAUUACCGGAC [EXclNG1-LROPPY04] (Eterna round: R96, puzzle: Exclusion NG 1)
3. CCAGCAAGUUCAGCUCGUCACAUGAGGAUCACCCAUGUUAAGUAAUCCUUCUCUUCUAGGUAGCGCCGGAGAGAGGG [Eternabot (Original) Solution 16] (Eterna round: R97, puzzle: Sensor, turn-off variant 1)
4. GCUGGUCGAGGAUAUACAUGAGGAUCACCCAUGUGAUUAGCAGUCCUCGGACUGCAAUGUAGAAGGUGACCAGC [E3/2-B1] (Eterna round: R97, puzzle: Exclusion 3)
5. CAAGCAGAAUAAAGGUCCGACAUGAGGAUCACCCAUGUUCGUCGGGAUAUGCUUCCUUUACGAGGGAGCACCAGAAA [Eternabot (L2) Solution 25] (Eterna round: R97, puzzle: Sensor, turn-off variant 1)

Result:
1. 458
2. 16.4
3. 32.6
4. 907
5. 34.3
